Target: UniProt:P10275
Sequence (P10275 whole entry): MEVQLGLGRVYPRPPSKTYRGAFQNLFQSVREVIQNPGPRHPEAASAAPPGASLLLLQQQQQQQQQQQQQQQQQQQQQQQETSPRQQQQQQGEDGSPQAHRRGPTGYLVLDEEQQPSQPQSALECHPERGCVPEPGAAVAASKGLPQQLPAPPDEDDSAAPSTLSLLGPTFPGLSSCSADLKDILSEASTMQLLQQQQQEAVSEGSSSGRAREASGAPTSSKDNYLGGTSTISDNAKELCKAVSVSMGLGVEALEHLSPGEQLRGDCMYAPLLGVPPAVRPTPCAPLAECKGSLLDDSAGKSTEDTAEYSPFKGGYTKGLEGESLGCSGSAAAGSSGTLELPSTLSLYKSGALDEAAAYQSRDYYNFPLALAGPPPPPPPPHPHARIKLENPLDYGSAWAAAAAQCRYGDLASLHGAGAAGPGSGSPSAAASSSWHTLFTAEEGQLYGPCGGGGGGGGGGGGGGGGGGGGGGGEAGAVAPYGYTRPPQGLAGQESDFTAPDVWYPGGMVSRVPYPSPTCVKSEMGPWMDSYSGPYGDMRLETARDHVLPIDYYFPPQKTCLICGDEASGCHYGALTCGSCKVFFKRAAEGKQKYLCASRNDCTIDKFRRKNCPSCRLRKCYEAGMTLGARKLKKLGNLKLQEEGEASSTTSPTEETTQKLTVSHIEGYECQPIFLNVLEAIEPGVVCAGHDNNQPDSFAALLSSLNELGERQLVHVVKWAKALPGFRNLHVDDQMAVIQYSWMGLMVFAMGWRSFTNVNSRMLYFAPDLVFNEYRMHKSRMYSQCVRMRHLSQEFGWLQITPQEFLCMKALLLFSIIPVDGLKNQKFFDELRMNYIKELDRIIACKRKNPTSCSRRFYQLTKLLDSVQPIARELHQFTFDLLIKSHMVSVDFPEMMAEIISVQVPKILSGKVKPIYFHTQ
pIC50: −log10 of the molar value.
# pIC50 per record follows
result_type: pIC50

>>> numeric_value("C[C@]12CC[C@H]3[C@@H](CC4(CC4)C4=CC(=O)CC[C@@H]43)[C@@H]1CC[C@@]21C=CC(=O)O1")
7.43
>>> numeric_value("CC[C@]12CC[C@H]3[C@@H](CC4(CC4)C4=CC(=O)CC[C@@H]43)[C@@H]1CC[C@@]21C=CC(=O)O1")
7.38
